- Test system: Human papillomavirus type 1a protein E7 (residues 44-93)
- procedure summary: HPV1a E7 fragment binders on microarrays, primary screen, biochemical, small-molecule microarray, residues 44-93, 635 nm fluorescence (AID 1108);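 also: E7 fragment applied at 1 µg/mL in TBST for 1 h at 4 C; score combines spot fluorescence with its signal to noise ratio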
- cond: small-molecule microarray binding, fluorescence 635 nm; higher = more signal
Can you tell me composite z-score for the items I'm about to list?

Field: example entries. Status: answers known.
{"columns": ["mol", "composite z-score"],
 "data": [
  ["COc1ccc([Si](C)(C)[C@H]2[C@H](CCO)O[C@@]3(C(=O)N(Cc4cccc(N5C(=O)COc6ccccc65)c4)c4ccccc43)[C@@H]2C)cc1", -0.502],
  ["[N-]=[N+]=NCc1ccccc1C[C@@]1(C(=O)N2CCCCC2)N=C(c2ccc(OCCCO)cc2)O[C@@H]1c1ccccc1", 0.785],
  ["C=CCN1Cc2ccccc2[C@H]2OC(c3ccc(OCCCO)cc3)=N[C@@]2(CC=C)C1=O", 1.46]
]}

# return composite z-score for each item in the list
1. C=C(C)c1cc2c(c(CCCCCC)n1)[Si](C(C)C)(C(C)C)OC2
2. CN(C)CCCNC(=O)[C@@]1(c2ccc([N+](=O)[O-])cc2)CC(=O)N(CC23CC4CC(CC(C4)C2)C3)[C@@H]1c1ccc(CO)cc1I
3. CCOC(=O)C[C@H]1[C@H](OC(=O)c2cc3ccccc3oc2=O)[C@@H](NC(=O)c2ccc(-c3ccccc3)cc2)c2cc(OCCCO)ccc2N1C(=O)c1ccc2ccccc2n1

Key:
1. -1.01
2. 1.39
3. 1.38

The recorded composite z-score for entry COC(=O)[C@@]1(Cc2ccc(OC)cc2)[C@@H]2C(=CC(=O)[C@H]2CC(=O)C(=O)N(C)C)CN1C(=O)c1ccccc1 equals 1.42

---

Can you tell me z-score for the items I'm about to list?
- procedure summary: basal HepG2 mitochondrial membrane potential changes, profiling panel, cell-based, JC-1 fluorescence, 24 h, 100 nL compound (AID 1167); also: test concentration not given here
- cond: higher = more signal

{"columns": ["molecule", "z-score"],
 "data": [
  ["COCCOC(=O)N1C(=O)[C@@]2(c3cc(C#CCCO)ccc31)[C@H](c1ccccc1OCCO)N1[C@H](c3ccccc3)[C@H](c3ccccc3)OC(=O)[C@H]1[C@@H]2C(=O)Nc1nc2ccccc2s1", -3.28]
]}

# return z-score for each item in the list
1. COC(=O)c1c(CC[C@@H](CO)NC(=O)N2CCC[C@H]2Cn2cc(Cc3ccccc3)nn2)oc(C(C)=O)c1C(=O)OC
2. NC(=O)N1C(=O)C2C(C1=O)C1C=C(CCCO)C2C(c2cccs2)N1Cc1cccc(OC(F)(F)F)c1 (stereo not drawn)
3. CN(C)CCCCNC(=O)[C@@H]1C[C@@H]2C(=O)N[C@@H](Cc3ccccc3)C(=O)N2[C@@H]1c1cccc(OCCO)c1
4. COCCOC(=O)N1C(=O)[C@@]2(c3cc(C#CC4=CCCCC4)ccc31)[C@H](c1ccc(OCCO)cc1)N1[C@H](c3ccccc3)[C@H](c3ccccc3)OC(=O)[C@H]1[C@@H]2C(=O)NC[C@H](O)c1ccccc1

Key:
-0.123
-0.339
1.88
-0.9

# return z-score for each item in the list
1. COC(=O)[C@@]1(Cc2ccccc2)[C@@H]2C(=CC(=O)[C@H]2CC(=O)C(=O)N(C)C)CN1C(=O)c1ccccc1
2. CC=CC(O)C1C=CC2C(=O)N(c3ccccc3)C(=O)C2N1Nc1ccccc1F (stereo not drawn)
3. [N-]=[N+]=NCc1ccccc1[C@H]1OC(c2ccc(OCCCO)cc2)=N[C@@]1(CCS(=O)(=O)c1ccccc1)C(=O)NCC(O)CO (stereo partly drawn)

Key:
2.58
-0.866
-1.57

# return z-score for each item in the list
1. C=C(C)c1cc2c(c(CCCCCC)n1)[Si](C(C)C)(C(C)C)OC2
2. COc1ccc(C(O)C2C=CC3C(=O)N(c4ccccc4)C(=O)C3N2Nc2ccc([N+](=O)[O-])cc2)cc1 (stereo not drawn)
3. COCCOC(=O)N1C(=O)[C@@]2(c3cc(C#Cc4ccc(OC)cc4)ccc31)[C@H](c1ccc(O)cc1)N1[C@H](c3ccccc3)[C@H](c3ccccc3)OC(=O)[C@H]1[C@@H]2C(=O)N1CCCCCCC1
4. CC(C)N1C(=O)C[C@@](C(=O)NCCCN(C)C)(c2ccc([N+](=O)[O-])cc2)[C@H]1c1ccc(CO)cc1
5. CC(C)C(=C=CC[C@H](O)c1cccc(OCCO)c1)C[C@H](O)c1cc(Cl)cc(Cl)c1O
6. CCOC(=O)C[C@H]1[C@H](OC(=O)c2ccc(C(=O)c3ccccc3)cc2)[C@@H](NC(=O)Cc2ccc(OC)cc2)c2cc(OCCCO)ccc2N1C(=O)c1ccccc1

Key:
-0.592
-0.378
-0.902
-0.459
0.00345
0.425

# return z-score for each item in the list
1. CC[C@H]1C2=C3C(CC[C@H]4C(OCc5ccc(F)cc5C(F)(F)F)OC[C@](C)([C@@H]34)N(C(=O)OC(C)(C)C)C2)C(COC)C1COC (stereo partly drawn)
2. COCCOC(=O)N1C(=O)[C@@]2(c3cc(C#Cc4ccc(OC)cc4)ccc31)[C@H](C(=O)Nc1nc3ccccc3s1)[C@H]1C(=O)O[C@H](c3ccccc3)[C@H](c3ccccc3)N1[C@@H]2c1ccc(O)cc1
3. O=C1N(Cc2ccccc2)Cc2ccccc2[C@@H]2OC(c3ccc(OCCCO)cc3)=N[C@]12CCS(=O)(=O)c1ccccc1
4. Cc1cc(C)c(C(O)C2C=CC3C(=O)N(c4ccccc4)C(=O)C3N2Nc2ccc(C(C)C)cc2)c(C)c1 (stereo not drawn)
5. CC(=O)c1ccc(C(O)C2C=CC3C(=O)N(c4ccccc4)C(=O)C3N2Nc2ccc(C#N)cc2)cc1 (stereo not drawn)
6. [N-]=[N+]=Nc1ccccc1C[C@]1(C(=O)N2CCOCC2)N=C(c2ccc(OCCCO)cc2)O[C@H]1c1ccccc1
7. COc1ccc([Si](C)(C)[C@@H]2[C@@H](CC(=O)N3Cc4ccccc4C[C@H]3CO)O[C@]3(C(=O)N(C)c4ccccc43)[C@H]2C)cc1
8. Cc1cc(C)c(C(O)C2C=CC3C(=O)NC(=O)C3N2Nc2ccc(Cl)cc2Cl)c(C)c1 (stereo not drawn)

Key:
1. 1.38
2. -2.78
3. -0.565
4. -1.37
5. -1.19
6. 1.99
7. -0.682
8. -2.65

# return z-score for each item in the list
1. [N-]=[N+]=NCc1ccccc1C[C@@]1(C(=O)N2CCOCC2)N=C(c2ccc(OCCCO)cc2)O[C@@H]1c1ccccc1
2. CCOC(=O)c1ccc(NC(=O)O[C@H]2[C@H](OC(=O)Nc3ccc4c(c3)OCO4)[C@H](OC(=O)Nc3ccc4c(c3)OCO4)[C@@H](OC)O[C@@H]2CO)cc1
3. COc1cc(OC)c(C(O)C2C=CC3C(=O)N(C)C(=O)C3N2NC(=O)OC(C)(C)C)cc1Br (stereo not drawn)
4. COC(=O)[C@@]1(Cc2ccc(OC)cc2)[C@H]2c3cc(C(=O)N(C)C)n(C[C@H](O)CO)c3C[C@H]2CN1C(=O)c1ccccc1
5. COc1ccc([Si](C)(C)[C@@H]2[C@@H](CCn3cc([C@H](O)c4ccccc4)nn3)O[C@]3(C(=O)N(Cc4ccc(N5CCC5=O)cc4)c4ccccc43)[C@H]2C)cc1
6. OCC1CC(c2ccccc2)=NO1 (stereo not drawn)

Key:
-0.801
-0.691
-1.05
0.906
1.63
0.883

---

- procedure summary: Plasmodium falciparum growth inhibition, primary screen, strain 3D7, DAPI fluorescence, 100 nL (AID 1184);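 also: parasites grown inside human red blood cells in medium with human serum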
- cond: P. falciparum 3D7 growth, 3 d, higher = more signal
Can you tell me z-score for the items I'm about to list?
One number for each entry.

Field: example entries. Status: answers known.
{"columns": ["compound", "readout number"],
 "data": [
  ["COCCOC(=O)N1C(=O)[C@@]2(c3cc(C#Cc4ccc(OC)cc4)ccc31)[C@H](C(=O)Nc1nc3ccccc3s1)[C@H]1C(=O)O[C@H](c3ccccc3)[C@H](c3ccccc3)N1[C@@H]2c1ccc(O)cc1", -1.89],
  ["[N-]=[N+]=Nc1ccccc1[C@H]1OC(c2ccc(OCCCO)cc2)=N[C@@]1(CCS(=O)(=O)c1ccccc1)C(=O)NCCN1CCOCC1", -2.52],
  ["O=C1NC(=O)C2C1C=CC(C(O)c1cccc3ccccc13)N2Nc1ccc(Cl)cc1Cl (configuration not stated)", -0.0879],
  ["CCCCCCCCCCC(O)C1C=CC2C(=O)N(C)C(=O)C2N1Nc1ccc([N+](=O)[O-])cc1[N+](=O)[O-] (configuration not stated)", 0.625],
  ["CCCNC(=O)[C@@]1(c2ccc([N+](=O)[O-])cc2)CC(=O)N(C2CCCCC2)[C@@H]1c1ccc(CO)cc1", -0.47],
  ["CC[C@H]1C2=C3C(CC[C@H]4C(OCc5ccc(F)cc5C(F)(F)F)OC[C@](C)([C@@H]34)N(C(=O)OC(C)(C)C)C2)C(COC)C1COC (some centres not stated)", 0.133],
  ["COC(=O)[C@@]1(Cc2ccc(F)cc2)[C@H]2c3cc(C(=O)N(C)C)n(CCc4ccc(O)c(OC)c4)c3C[C@H]2CN1C(=O)c1ccccc1", 0.845],
  ["CN(C)C(=O)[C@@]1(Cc2ccccc2CN=[N+]=[N-])N=C(c2ccc(OCCCO)cc2)O[C@H]1c1ccccc1CN=[N+]=[N-]", -2.15],
  ["O=C1O[C@@H](c2ccccc2)[C@@H](c2ccccc2)N2[C@@H](c3ccc(O)cc3)[C@]3(C(=O)Nc4ccc(C#CC5(O)CCCCCC5)cc43)[C@@H](C(=O)NC[C@H](O)c3ccccc3)[C@H]12", -0.627],
  ["CN1C(=O)C2C=CC(C(O)COCc3ccccc3)N(N(c3ccccc3)c3ccccc3)C2C1=O (configuration not stated)", -0.144]
]}

# return z-score for each item in the list
1. O[C@@H](Cc1ccccc1)[C@@H](/C=C/C1CC1)N(CC#Cc1ccccc1)Cc1cccc(Cl)c1
2. C=C(COC)/C(=C/C[C@H](OC(=O)c1ccncc1)c1ccccc1OCCO)c1cnc2ccccc2c1
3. NCCCCCNC(=O)[C@@H]1C[C@@H]2C(=O)NCC(=O)N2[C@@H]1c1cccc(OCCO)c1
4. COC(=O)[C@@]1(Cc2ccccc2)[C@@H]2C(=CC(=O)[C@H]2CC(=O)C(=O)N(C)C)CN1C(=O)c1ccccc1
5. O=C1NC(=O)C2C1C=CC(C(O)CCc1ccccc1)N2Nc1ccc(Cl)cc1Cl (configuration not stated)
6. COC1OC[C@]2(C)[C@H]3C4=C(CN2C(=O)OC(C)(C)C)[C@H](C)C(CO)C(CO)C4CC[C@@H]13 (some centres not stated)
7. O=C1O[C@H](c2ccccc2)[C@H](c2ccccc2)N2[C@H]1[C@@H](C(=O)N1CCN(c3ncccn3)CC1)[C@]1(C(=O)Nc3ccc(C#CC4(O)CCCCCC4)cc31)[C@H]2c1ccc(OCCO)cc1

Key:
-1.27
-2.99
-1.28
-0.99
1.5
-0.892
-2.13

# return z-score for each item in the list
1. CC1CC/C=C\[C@H]2OC34C=CCN(C(C)C)C(=O)[C@H]3N(CCCCCCO)C(=O)[C@@H]4C2C(=O)O1 (some centres not stated)
2. N#Cc1ccc(C(O)C2C=CC3C(=O)N(c4ccccc4)C(=O)C3N2Nc2ccccc2)cc1 (configuration not stated)
3. C=C(COC)C(=O)CC[C@@H](OC(=O)c1cccnc1)c1ccc(OCCO)cc1
4. COCCOC(=O)N1C(=O)[C@@]2(c3cc(C#CC4=CCCCC4)ccc31)[C@H](c1ccc(OCCO)cc1)N1[C@H](c3ccccc3)[C@H](c3ccccc3)OC(=O)[C@H]1[C@@H]2C(=O)NC[C@H](O)c1ccccc1
5. C=CCC(OC(C)=O)[C@@H]1[C@@H](N(Cc2cccc3ccccc23)C(=O)c2cccc3ccccc23)c2cc(OCCCO)ccc2N1C(=O)c1ccc(-c2ccccc2)cc1 (some centres not stated)

Key:
[-0.565, -0.605, 0.415, -2.1, -2.37]
